# self-cleavage kobs at 2500 uM GlcN6P annotations
B1: glmS ribozyme (parent)
chain: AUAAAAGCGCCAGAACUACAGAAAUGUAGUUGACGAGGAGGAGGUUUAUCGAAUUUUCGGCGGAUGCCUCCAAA

- Variants of: B1
- MEASUREMENT_PROTOCOL: self-cleavage kobs at 2500 uM GlcN6P; higher = faster cleavage; RNA array
- SETUP_CONDITIONS: with glucosamine-6-phosphate
Variants at the floor of the assay were thinned out.
Note: unit s⁻¹ is implicit; provide only the numeric part.

Consider the worked cases shown below.
{"MUTATION_LIST": "G32A A36C U55G C67G C68G", "self-cleavage kobs at 2500 uM GlcN6P [s⁻¹]": "4.75e-05"}
{"MUTATION_LIST": "U56A U65C", "self-cleavage kobs at 2500 uM GlcN6P [s⁻¹]": 0.000177}
{"MUTATION_LIST": "G40C G66C", "self-cleavage kobs at 2500 uM GlcN6P [s⁻¹]": 0.000833}

Q: Dear colleague, I am looking for the recorded self-cleavage kobs at 2500 uM GlcN6P of the following variant: C58G
Result: 8.3e-05

Q: Dear colleague, I am looking for the recorded self-cleavage kobs at 2500 uM GlcN6P of the following variant: A12U A14U U45A
Result: 0.00242

Q: Dear colleague, I am looking for the recorded self-cleavage kobs at 2500 uM GlcN6P of the following variant: G13A A64G
Result: 0.000246

Q: Dear colleague, I am looking for the recorded self-cleavage kobs at 2500 uM GlcN6P of the following variant: C10U C68G
Result: 2.5e-05
